tested on: Setaria faberi (SETFA); assay: Post-Emergence Test (herbicidal, glasshouse pots); assay type: in vivo; details: rate 250 g/ha; evaluated after 13 days
valueKind: Post-Emergence Test SETFA percentage damage (five-point scale)

Reported Post-Emergence Test SETFA percentage damage (five-point scale) for Setaria faberi (SETFA), given CCn1c(Oc2ccc(F)c(F)c2)cc(=O)c(C(=O)O)c1-c1ccc(C#N)c(Cl)c1 ?
4 (4=61-80%)

Again, but for CCn1c(OC2CC2)cc(=O)c(C(=O)O)c1-c1ccc(Cl)c(Cl)c1
3 (3=41-60%)

Again, but for CCn1c(Oc2cc(C)on2)cc(=O)c(C(=O)O)c1-c1ccc(Cl)c(Cl)c1
0

Again, but for C/C=C(\C)COc1cc(=O)c(C(=O)O)c(-c2ccc(Cl)c(Cl)c2)n1CC
0

Again, but for CCn1c(Oc2ccc(C)c(F)c2)cc(=O)c(C(=O)O)c1-c1ccc(C#N)c(Cl)c1
3 (3=41-60%)

Again, but for CCn1c(Oc2ccc(C)c(F)c2)cc(=O)c(C(=O)O)c1-c1ccc(Cl)c(Cl)c1
1 (1=0-20%)

Again, but for C#CC(C)Oc1cc(=O)c(C(=O)O)c(-c2ccc(Cl)c(Cl)c2)n1CC (stereo not drawn)
0

Again, but for CCn1c(Oc2cc(C3CC3)on2)cc(=O)c(C(=O)O)c1-c1ccc(Cl)c(Cl)c1
2 (2=21-40%)

Again, but for CCn1c(Oc2ccnc(Cl)c2)cc(=O)c(C(=O)O)c1-c1ccc(Cl)c(Cl)c1
3 (3=41-60%)

====

system: Amaranthus retoflexus (AMARE); test: Post-Emergence Test (herbicidal, glasshouse pots); type: in vivo; settings: rate 250 g/ha; evaluated after 13 days
I'd be grateful if you could share measured Post-Emergence Test AMARE percentage damage (five-point scale) for these entries.

Need Post-Emergence Test AMARE percentage damage (five-point scale) of CCn1c(Oc2ccc3nccnc3c2)cc(=O)c(C(=O)O)c1-c1ccc(Cl)c(Cl)c1 , thanks.
1 (1=0-20%)

Again, but for CCn1c(Oc2ccc(C(F)(F)F)cc2)cc(=O)c(C(=O)O)c1-c1ccc(Cl)c(Cl)c1
4 (4=61-80%)

Again, but for CCn1c(Oc2ccc(F)nc2)cc(=O)c(C(=O)O)c1-c1ccc(Cl)c(Cl)c1
4 (4=61-80%)

Again, but for CCn1c(Oc2ccc(C)cc2)cc(=O)c(C(=O)O)c1-c1ccc(Cl)c(Cl)c1
3 (3=41-60%)

Again, but for CCn1c(OC2CC2)cc(=O)c(C(=O)O)c1-c1ccc(Cl)c(Cl)c1
1 (1=0-20%)

Again, but for C#CC(C)Oc1cc(=O)c(C(=O)O)c(-c2ccc(Cl)c(Cl)c2)n1CC (centres unmarked)
1 (1=0-20%)

Again, but for CCn1c(Oc2cc(C)on2)cc(=O)c(C(=O)O)c1-c1ccc(Cl)c(Cl)c1
2 (2=21-40%)

Again, but for CCn1c(Nc2ccc(F)cc2)cc(=O)c(C(=O)O)c1-c1ccc(Cl)c(Cl)c1
2 (2=21-40%)

====

I'd be grateful if you could share measured Post-Emergence Test AMARE percentage damage (five-point scale) for these entries.
tested on: Amaranthus retoflexus (AMARE); assay: Post-Emergence Test (herbicidal, glasshouse pots); type: in vivo; conditions: rate 250 g/ha; evaluated after 13 days

Reported Post-Emergence Test AMARE percentage damage (five-point scale) for Amaranthus retoflexus (AMARE), given CCn1c(Oc2ccnc(Cl)c2)cc(=O)c(C(=O)O)c1-c1ccc(Cl)c(Cl)c1 ?
4 (4=61-80%)

Again, but for CCn1c(Oc2ccc(F)c(F)c2)cc(=O)c(C(=O)O)c1-c1ccc(C#N)c(Cl)c1
4 (4=61-80%)

Again, but for CCn1c(Oc2ccc(S(C)(=O)=O)cc2)cc(=O)c(C(=O)O)c1-c1ccc(Cl)c(Cl)c1
2 (2=21-40%)

Again, but for CCn1c(Oc2cc(C3CC3)on2)cc(=O)c(C(=O)O)c1-c1ccc(Cl)c(Cl)c1
4 (4=61-80%)

Again, but for CCn1c(Oc2ccn(C3CC3)n2)cc(=O)c(C(=O)O)c1-c1ccc(Cl)c(Cl)c1
4 (4=61-80%)

Again, but for CCn1c(Oc2cnsn2)cc(=O)c(C(=O)O)c1-c1ccc(Cl)c(Cl)c1
1 (1=0-20%)

Again, but for CCc1cc(Oc2cc(=O)c(C(=O)O)c(-c3ccc(Cl)c(Cl)c3)n2CC)no1
1 (1=0-20%)

Again, but for CCn1cc(Oc2cc(=O)c(C(=O)O)c(-c3ccc(Cl)c(Cl)c3)n2CC)cn1
4 (4=61-80%)

Again, but for CCn1c(Oc2cc(Cl)n(C)n2)cc(=O)c(C(=O)O)c1-c1ccc(Cl)c(Cl)c1
4 (4=61-80%)

Again, but for CCn1c(Oc2ccc(C)c(F)c2)cc(=O)c(C(=O)O)c1-c1ccc(Cl)c(Cl)c1
2 (2=21-40%)

Again, but for CCn1c(Nc2ccccc2F)cc(=O)c(C(=O)O)c1-c1ccc(Cl)c(Cl)c1
1 (1=0-20%)

Again, but for CCn1c(OC)cc(=O)c(C(=O)O)c1-c1ccc(Cl)c(Cl)c1
0
